# Test system: A498 renal
# method-summary: NCI tumour cell line growth inhibition, 48 h
Would you mind labelling by TGI? At or over 20 µM is 1 (yes), under is 0 (no).

Has CCOC(=O)C1(C/C=C(/C)Cl)CCCC1=O (configuration not stated) a recorded TGI greater than or equal to 20 µM?
1 (yes)

Has NC(N)=N/N=C/c1nc2n(c1[N+](=O)[O-])CCS2 a recorded TGI greater than or equal to 20 µM?
1 (yes)

Has CCSc1sc(=Nc2ccc(N=c3sc(C)c(SC)s3)cc2)sc1-c1ccc(C)cc1 a recorded TGI greater than or equal to 20 µM?
1 (yes)

Has CC(NC(=O)C(C)NC(=O)C(N)CCP(C)(=O)O)C(=O)O (configuration not stated) a recorded TGI greater than or equal to 20 µM?
1 (yes)

Has Cc1ccc(S(=O)(=O)N/N=C(\c2nc3ccc(Cl)cc3[nH]c2=O)C(O)c2cccc([N+](=O)[O-])c2)cc1 (configuration not stated) a recorded TGI greater than or equal to 20 µM?
1 (yes)

Has CC1(C)N=C(C(N)=O)c2ncn(N)c2N1 a recorded TGI greater than or equal to 20 µM?
1 (yes)

Has O=C1c2ccccc2-c2c1c1c(=O)[nH]c3ccccc3c1n2Cc1ccccc1 a recorded TGI greater than or equal to 20 µM?
1 (yes)

Has O=c1[nH]c(=O)n(C2OC(COP(=O)(O)OP(=O)(O)OC3OC(CO)C(O)C(O)C3O)C(O)C2O)cc1F (configuration not stated) a recorded TGI greater than or equal to 20 µM?
0 (no)

Has CCc1cccc(C)c1NC(=O)c1sc2nc3c(cc2c1N)CCCCC3 a recorded TGI greater than or equal to 20 µM?
1 (yes)

Has CC(=O)N=C1N(/C=C2\C(=O)Oc3ccccc3C2=O)C(=O)/C(=C/c2ccc(OC(C)=O)cc2)N1C a recorded TGI greater than or equal to 20 µM?
1 (yes)

Has COc1ccc(-c2cn[nH]c2-c2cc(OC)c3c(c2)OCO3)cc1 a recorded TGI greater than or equal to 20 µM?
0 (no)

Has O=C(CO[N+](=O)[O-])Nc1ccc(C(=O)/C=C/c2ccc(Cl)cc2)cc1 a recorded TGI greater than or equal to 20 µM?
1 (yes)

Has Cc1ccsc1/C=N/Nc1nc2ccccc2s1 a recorded TGI greater than or equal to 20 µM?
0 (no)

Has [N-]=[N+]=C1N=CN=C1c1ncn[nH]1 a recorded TGI greater than or equal to 20 µM?
1 (yes)

Has C=C(c1ccc2nc(NC(=O)OC)[nH]c2c1)c1cccs1 a recorded TGI greater than or equal to 20 µM?
0 (no)
